- Test system: GALAP (Galium aparine)
- assay_overview: Postemergence herbicidal evaluation
- Format: in vivo
- condition_description: postemergence, rate 0.0620 kg/ha
- Method: In the tests, seedling plants are grown in jiffy flats for about two weeks. […] After spraying, the plants are placed on greenhouse benches and are cared for in accordance with conventional greenhouse procedures. From four to five weeks after treatment, the seedling plants are examined and rated according to the rating system set forth below. Where more than one test is involved for a given compound, the data are averaged. Results of herbicide evaluation are expressed on a rating scale (0-9). […]
metric_name: GALAP herbicidal rating
Just the number, please, no unit after it.

Input line: # query: GALAP herbicidal rating of entry CC1=CC(C)(C)OC(c2nsc3ccc(-n4c(=O)cc(C(F)(F)F)n(C)c4=O)cc23)C1 (centres unmarked)
Output line: 6.0

Input line: # query: GALAP herbicidal rating of entry Cn1c(C(F)(F)F)cc(=O)n(-c2ccc3snc(C4OCCCS4)c3c2)c1=O (centres unmarked)
Output line: 6.0

Input line: # query: GALAP herbicidal rating of entry CC1COC(c2nsc3ccc(-n4c(=O)cc(C(F)(F)F)n(C)c4=O)cc23)O1 (centres unmarked)
Output line: 9.0

Input line: # query: GALAP herbicidal rating of entry "Cn1c(C(F)(F)F)cc(=O)n(-c2cc3c(C4OCCCO4)nsc3cc2F)c1=O"
Output line: 9.0

Input line: # query: GALAP herbicidal rating of entry "Cc1cnn(-c2nsc3ccc(-n4c(=O)cc(C(F)(F)F)n(C)c4=O)cc23)c1"
Output line: 3.0

Input line: # query: GALAP herbicidal rating of entry "Cn1c(C(F)(F)F)cc(=O)n(-c2ccc3snc(-c4ccco4)c3c2)c1=O"
Output line: 9.0

Input line: # query: GALAP herbicidal rating of entry "Cn1c(C(F)(F)F)cc(=O)n(-c2ccc3snc(-c4ccoc4)c3c2)c1=O"
Output line: 3.0

Input line: # query: GALAP herbicidal rating of entry "Cc1nn(-c2nsc3ccc(-n4c(=O)cc(C(F)(F)F)n(C)c4=O)cc23)c(C)c1C"
Output line: 0.0
